The origin of these recorded values is PubChem BioAssay (NCI).

System: SF-295 CNS
Test: NCI-60 one-dose screen, 48 h (100 = growth as untreated, 0 = no growth, -100 = all killed)
Details: 10 µM
The panel holds about 83,000 compounds, 20% with a hit somewhere; the sample as a whole holds those more often.
Classification field: yes (1) = growth at or over 90%; no (0) = growth under 90%.

- O=C1/C(=C\c2ccc(Br)cc2)CN(C(=O)c2ccccc2F)C/C1=C\c1ccc(Br)cc1: no (0)
- COc1ccc2c(c1)N(CCO)C1=C(C(=O)OC1)C2c1cc(OC)c(OC)c(OC)c1 (stereo unspecified): no (0)
- Cc1ccc(S(=O)(=O)OCCN(CCOS(=O)(=O)c2ccc(C)cc2)c2c[nH]c(=O)[nH]c2=O)cc1: yes (1)
- COc1ccc(-c2nn(-c3cccc(NC(=O)c4ccc5c(c4)OCCO5)c3)cc2-c2ccncc2)cc1Cl: no (0)
- OCC1OC(n2cnc3c(N/N=C\c4ccccn4)ncnc32)C(O)C1O (stereo unspecified): no (0)
- Clc1ccc(Sc2nc(NC3CC3)nc(Sc3ccc(Cl)cc3)n2)cc1: no (0)
- CC1CC(=O)OC(C)C1 (stereo unspecified): yes (1)
- COc1ccc(-c2nnc(-c3c(-c4ccccc4)nc4ncccn34)o2)cc1OC: yes (1)
- Nc1ccc2c(c1)Cc1cc(N)c(Br)cc1-2: no (0)
- COc1ccc(-c2nn(-c3cccc(NC(=O)Nc4ccc(Cl)c(C(F)(F)F)c4)c3)cc2-c2ccncc2)cc1Cl: no (0)
- O=C1N=NC2=C1c1c3ccccc3c(O)n1CC2: yes (1)
- Cc1cc(C)c2c(n1)sc1c(Nc3ccc(Cl)cc3)ncnc12: no (0)
- COc1ccc(/C=C/C(=O)Nc2ccc(-c3nc4ccc(F)cc4s3)cc2)cc1: yes (1)

* * *

Tested on: 786-0 renal
Assay: NCI-60 one-dose screen, 48 h (100 = growth as untreated, 0 = no growth, -100 = all killed)
Settings: 10 µM
This is part of a sample that, as a whole, favours compounds with a hit. Of some 83,000 tested, about 20% had one in any assay.
Classification field: T = growth at or over 70%; F = growth under 70%.

* Cc1ccc(CC#N)cc1C | T
* CCOC(=O)C1(CC(C)C)CCOC1=O (stereo unspecified) | T
* O=[P@@]1(c2ccccc2)O[C@H](COCc2ccccc2)[C@@H](OCc2ccccc2)[C@H](OCc2ccccc2)[C@H]1O | F
* CSCCCNC(=O)c1ccc2c(c1)/C(=C/c1[nH]c(C)cc1C)C(=O)N2 | F
* CC(C)N(CCNc1nc(C(Cl)(Cl)Cl)nc2cc(Cl)ccc12)C(C)C | F
* c1ccc2c(c1)oc1c3c(ccc12)NCCC3 | T
* COC(=O)[C@@H]1[C@H](O)[C@H](C)[C@H](O)[C@@](C)(O)/C=C\C=C(C)C(=O)Nc2c(C)c(OC(C)=O)c3c(c2O)C(=O)C(C)=C2OCOC(=C23)C(C)=C[C@@](C)(O)[C@H](O)[C@@H](C)[C@H]1OC(C)=O | T
* Cc1nc2oc3ccccc3c(=O)c2cc1C(=O)NCc1ccccc1 | F
* COc1ccc2c(c1)[n+]([O-])c(C#N)c(NC(=O)c1ccco1)[n+]2[O-] | T
* COc1ccc(S(=O)(=O)Nc2c(/C=C\c3cc(OC)c(OC)c(OC)c3)ccc(OC)c2O)cc1 | F
* COc1cc(Cc2cc(-c3ccc(Cl)cc3)n[nH]c2=O)ccc1O | T
* Cc1cc(C)c2c(n1)sc1c(Nc3ccc(Cl)cc3)ncnc12 | F
* COc1ccc2c(c1)sc1nc(-c3ccccc3)c(-c3ccsc3)n12 | F
* N#Cc1ncc(-c2cc(F)c(F)c(F)c2)c(NC2CCCCCC2)n1 | T
* CN1CC[C@@H](c2c(O)cc(O)c3c(=O)cc(-c4ccccc4Cl)oc23)[C@@H](O)C1 | F

* * *

Test system: OVCAR-3 ovarian
Assay: NCI-60 one-dose screen, 48 h
Conditions: 10 µM
About 83,000 compounds went through this panel and 20% of them were active in at least one assay; those are over-represented in the sample as a whole. The source made the active and inactive calls. How the source made its calls: active means growth percent below 10; inactive means the rest.
Possible outcomes: T = active, F = inactive

- O=[N+]([O-])c1ccc(N/N=C/c2cccc3ccccc23)nc1: F
- CCCCCCCCCCCCCCCCCC(=O)OCCCCCCC: F
- O=C1/C(=C\c2ccc(Cl)cc2)CN(C(=O)c2ccccc2)C/C1=C\c1ccc(Cl)cc1: T
- COc1ccc2c(c1OC)O/C(=C\c1ncc([N+](=O)[O-])n1C)C2=O: T
- Nc1ccc2cc(S(=O)(=O)O)cc(O)c2c1N=Nc1ccc(F)cc1: F
- COc1cc(-c2nc(-c3nnc(-c4ccccc4Cl)o3)c3ccccn23)cc(OC)c1OC: F

* * *

System: BT-549 breast
Experiment: NCI-60 one-dose screen, 48 h (100 = growth as untreated, 0 = no growth, -100 = all killed)
Conditions: 10 µM
Compounds without any hit were thinned out: in the full panel of roughly 83,000, 20% have a hit.
Known growth of a selection of compounds
observable: growth (%)

* CCOCCOCCOCCOCCOCCOCCOCCOCCOCCO (tested in a mixture with another compound) | -52.7
* Cc1ccc(C(=O)N2C/C(=C/c3ccc(F)cc3)C(=O)/C(=C/c3ccc(F)cc3)C2)cc1 | 92.5
* ClC(Cl)(Cl)c1nc2nccnc2[nH]1 | 103
* O=c1[nH]c2ccc(Cl)cc2c2ccccc12 | 100
* CCCCOC(=O)Oc1ccc(C(=O)Oc2ccc(OCC)cc2)cc1 | 85.9
* CCc1ccc2c(c1)N(CCO)C1=C(C(=O)OC1)C2c1ccccc1 (stereo unspecified) | 87.7
* CSc1nc(=O)n(Cc2ccc(F)cc2)c(=O)n1Cc1ccc(C)cc1 | 103
* COc1cc(NC(=O)CCSc2nc3ccc(C)cc3c(=O)n2Cc2ccccc2)cc(OC)c1OC | 95.5
* Cc1ccc(C)c(C(O)(c2cc(C)ccc2C)C2(O)CCCCC2)c1 | 100
* CC/C(=C(/c1ccc(OCCN(C)C)cc1)c1ccc(OC(=O)CCCCC(=O)c2c(C)[nH]c(/C=C3\N=C(c4ccc[nH]4)C=C3OC)c2C)cc1)c1ccccc1 | 60.8
* CN(C)CCOc1nc2ccccc2c2c1-c1ccc(Cl)cc1C2=O | 52.1
* COc1ccc(-c2nc(-c3nc4ccc(OC)cc4[nH]3)cc3c2[nH]c2ccccc23)cc1 | 39.8
* CCC(=O)N1C/C(=C/c2ccc(Cl)cc2)C(=O)/C(=C/c2ccc(Cl)cc2)C1 | -18.7
* CCCC(F)C(=O)O (stereo unspecified) | 111
* N#Cc1cccc(OCc2nc(N)nc(N)c2-c2ccc(Cl)c(Cl)c2)c1 | 40.1
* COc1ccc(S(=O)(=O)Nc2c(/C=C\c3cc(OC)c(OC)c(OC)c3)ccc(OC)c2O)cc1 | 40.6

* * *

Tested on: LOX IMVI melanoma
Assay: NCI-60 one-dose screen, 48 h (100 = growth as untreated, 0 = no growth, -100 = all killed)
Details: 10 µM
This is part of a sample that, as a whole, favours compounds with a hit. Of some 83,000 tested, about 20% had one in any assay.
Known growth of a selection of compounds
observable: growth (%)

• CCN(CC)CCNC(=O)c1ccc(NC(C)=O)cc1 = 95.3
• CCN(CC)CCOc1nc2ccccc2c2c1-c1ccc(OC)cc1C2=O = -47.2
• c1ccc(CO[C@H]2CO[C@H]3[C@@H]2OC[C@H]3OCc2ccccc2)cc1 = 98.4
• COc1cc2cc3c(nc2cc1OC)CCN3Cc1ccc(NC(=O)Nc2cc(C(F)(F)F)cc(C(F)(F)F)c2)cc1 = 75.4
• CCOCC(=O)C(C#N)c1ccc(Cl)c(Cl)c1 (centres undefined) = 100
• CCCCN(CCCC)CCCCCCCCC(O)c1cc2ccccc2c2ccccc12 (centres undefined) = 49.2
• Nc1ncn([C@@H]2O[C@H](CO)[C@@H](O)[C@H]2O)c(=O)n1 = -9.93
• N#Cc1ncc(Br)c(NC2CCCCCC2)n1 = 101
• CCCCCC(=O)c1ccc(OCCCN2CCN(C(=O)OCC)CC2)cc1 = 81.7

* * *

Known growth of a selection of molecules
Tested on: OVCAR-4 ovarian
Assay: NCI-60 one-dose screen, 48 h (100 = growth as untreated, 0 = no growth, -100 = all killed)
Conditions: 10 µM
Compounds without any hit were thinned out: in the full panel of roughly 83,000, 20% have a hit.
observable: growth (%)

* N=C(N)c1ccc(-c2ccc(-c3ccco3)o2)cc1 | 62.9
* N#CSCC1CC(O)(c2ccccc2)CC(c2ccc(Cl)cc2)O1 (stereo not given) | 40
* Clc1ccc(/C=C2\CCCC3=C2N=C2SC=NN2C3c2ccc(Cl)cc2)cc1 (stereo not given) | 92.1
* COc1cc2cc3c(nc2cc1OC)CCN3Cc1ccc(NC(=O)c2ccc(Cl)c(C(F)(F)F)c2)cc1 | 80.4
* CC(C)=CCc1cc(O)cc2c1OC(C=C(C)C)C1=C2C(=O)C2=C(C1=O)S(=O)(=O)CCN2 (stereo not given) | 5.54
* COc1ccc2c(c1)O/C(=C\c1ncc([N+](=O)[O-])n1C)C2=O | -11.6
* CCC(=O)N1C/C(=C/c2ccc(Br)cc2)C(=O)/C(=C/c2ccc(Br)cc2)C1 | -0.254
* CC1CC(=O)OC(C)C1 (stereo not given) | 97.6
* COc1ccc2c(c1)O/C(=C\c1ccc([N+](=O)[O-])s1)C2=O | -32.2
* O=C(Nc1ccncc1)C(=O)c1cn(S(=O)(=O)c2cccc(Cl)c2)c2ccccc12 | 74.8
